B1: LINE1-full (parent)
chain: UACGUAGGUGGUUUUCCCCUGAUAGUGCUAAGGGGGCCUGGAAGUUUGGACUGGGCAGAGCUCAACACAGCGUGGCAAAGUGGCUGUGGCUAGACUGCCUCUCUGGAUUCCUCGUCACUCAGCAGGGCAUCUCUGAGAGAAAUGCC

Variants of: B1
method summary: self-cleavage, relative activity (ratio to wild type); higher = more cleavage; in vitro, sequencing; the parent is a self-cleaving ribozyme

mutation annotation: U85G
self-cleavage: 0.13
--
mutation annotation: A30G U81A
self-cleavage: 1.7
--
mutation annotation: U91C U143G
self-cleavage: 0.62
--
mutation annotation: A6G U46A
self-cleavage: 0.94
--
mutation annotation: U12A A138U
self-cleavage: 1.02
--
mutation annotation: U115A C123A
self-cleavage: 1.7
--
mutation annotation: G33A A142G
self-cleavage: 1.2
--
mutation annotation: A65G C113U
self-cleavage: 0.04
--
mutation annotation: A6C
self-cleavage: 1.08
--
mutation annotation: U9C
self-cleavage: 1.22
--
mutation annotation: C63A A79G
self-cleavage: 0.12
--
mutation annotation: C84A C131A
self-cleavage: 0.18
--
mutation annotation: C90G A129G
self-cleavage: 0.04
--
mutation annotation: U26C U108C
self-cleavage: 1.76
--
mutation annotation: G27A A94G
self-cleavage: 0.23
--
mutation annotation: U1A G106A
self-cleavage: 1.44
--
mutation annotation: U47A C110U
self-cleavage: 0.95
--
mutation annotation: U109C C146U
self-cleavage: 1.53
--
mutation annotation: C18U A69C
self-cleavage: 0.07
--
mutation annotation: A22G A31U
self-cleavage: 0.86
--
mutation annotation: G74U A142G
self-cleavage: 1.63
--
mutation annotation: U1A C84U
self-cleavage: 0.22
--
mutation annotation: U26A A136G
self-cleavage: 1.57
